# measurement.target: the molecule itself
# assay.explanation: SEC; S200 size-exclusion chromatography; 20 mM HEPES, pH 7.5, 200 mM NaCl, 0.5 mM TCEP, 10% glycerol; MBP as a size reference
measured.metric: binding result

1. Gle1^1–360 (domain or fragment, human, UniProt Q53GS7 1-360, looked up, human Gle1, N-terminal region, residues 1-360; also called WT Gle1^1–360; Gle1 N-terminal region; source: E. coli Rosetta, purified (amylose resin, on-column cleavage, S200 SEC)) MPSEGRCWETLKALRSSDKGRLCYYRDWLLRREDVLEECMSLPKLSSYSGWVVEHVLPHMQENQPLSETSPSSTSASALDQPSFVPKSPDASSAFSPASPATPNGTKGKDESQHTESMVLQSSRGIKVEGCVRMYELVHRMKGTEGLRLWQEEQERKVQALSEMASEQLKRFDEWKELKQHKEFQDLREVMEKSSREALGHQEKLKAEHRHRAKILNLKLREAEQQRVKQAEQERLRKEEGQIRLRALYALQEEMLQLSQQLDASEQHKALLKVDLAAFQTRGNQLCSLISGIIRASSESSYPTAESQAEAERALREMRDLLMNLGQEITRACEDKRRQDEEEAQVKLQEAQMQQGPEAH	binds
2. Gle1^(1–360 Δ45–54) (domain or fragment, human, UniProt Q53GS7 1-360, looked up, also called Gle1^(1–360 45–54); source: E. coli Rosetta, purified (amylose resin, on-column cleavage, S200 SEC)) MPSEGRCWETLKALRSSDKGRLCYYRDWLLRREDVLEECMSLPKHVLPHMQENQPLSETSPSSTSASALDQPSFVPKSPDASSAFSPASPATPNGTKGKDESQHTESMVLQSSRGIKVEGCVRMYELVHRMKGTEGLRLWQEEQERKVQALSEMASEQLKRFDEWKELKQHKEFQDLREVMEKSSREALGHQEKLKAEHRHRAKILNLKLREAEQQRVKQAEQERLRKEEGQIRLRALYALQEEMLQLSQQLDASEQHKALLKVDLAAFQTRGNQLCSLISGIIRASSESSYPTAESQAEAERALREMRDLLMNLGQEITRACEDKRRQDEEEAQVKLQEAQMQQGPEAH	binds
3. MBP-Gle1^1–152 (domain or fragment, human, UniProt Q53GS7 1-152, looked up, source: E. coli Rosetta, purified (amylose resin eluted with maltose, ion exchange); not shown: MBP, N-terminal, kept) MPSEGRCWETLKALRSSDKGRLCYYRDWLLRREDVLEECMSLPKLSSYSGWVVEHVLPHMQENQPLSETSPSSTSASALDQPSFVPKSPDASSAFSPASPATPNGTKGKDESQHTESMVLQSSRGIKVEGCVRMYELVHRMKGTEGLRLWQE	binds
